assay_notes: Solubility at 25° C. by HPLC of filtrates after equilibration of Form A in solvents
Assay type: physicochemical
test_parameters: 4:1 IPA/water, 25 °C, organic solvent or mixture, thermodynamic from solid, 4:1 IPA/water
property_name: solubility (µg/mL)
The response must be a number in µg/mL with no trailing unit.

# input For the compound NC(=O)c1nc(-c2c(Cl)cccc2Cl)oc1Nc1ccc(C(=O)N2CCS(=O)(=O)CC2)cc1 [Form A] , give its measured solubility value.
# output 7650

----------
assay_notes: Solubility at 25° C. by HPLC of filtrates after equilibration of Form A in solvents
Format: physicochemical
test_parameters: iPrOAc, 25 °C, organic solvent or mixture, thermodynamic from solid
property_name: solubility (µg/mL)
Value expressed in µg/mL; do not type the unit.

# input // Input: NC(=O)c1nc(-c2c(Cl)cccc2Cl)oc1Nc1ccc(C(=O)N2CCS(=O)(=O)CC2)cc1 [Form A] . Output its solubility only.
# output 6960
